This collection of values is drawn from ChEMBL document CHEMBL1133944.

# TESTED ON: Peroxisome proliferator-activated receptor delta (Homo sapiens)
# Sequence (Q03181 whole entry): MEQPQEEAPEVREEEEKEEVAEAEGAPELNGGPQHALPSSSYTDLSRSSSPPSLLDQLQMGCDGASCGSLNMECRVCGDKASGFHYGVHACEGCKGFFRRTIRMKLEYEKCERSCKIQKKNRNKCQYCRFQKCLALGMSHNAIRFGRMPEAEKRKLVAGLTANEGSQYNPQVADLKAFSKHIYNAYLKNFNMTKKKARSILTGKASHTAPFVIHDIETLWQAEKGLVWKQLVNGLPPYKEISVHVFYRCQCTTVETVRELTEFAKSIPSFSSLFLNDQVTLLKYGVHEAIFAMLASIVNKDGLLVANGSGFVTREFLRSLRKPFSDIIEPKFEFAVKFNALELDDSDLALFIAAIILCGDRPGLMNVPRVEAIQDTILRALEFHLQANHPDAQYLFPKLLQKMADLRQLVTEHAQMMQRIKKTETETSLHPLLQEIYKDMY
# ASSAY SUMMARY: Agonist activity against human PPAR delta receptor in CV-1 cell was determined
# Format: functional, cell-based
pEC50: −log10 of the molar value.
PARAMETER: pEC50

1. Cc1ccc(-c2nc(COc3ccc(CC(OC(C)C)C(=O)O)cc3)no2)cc1 (configuration not stated) ... 5.60
2. CC(C)OC(Cc1ccc(OCc2noc(-c3ccc(F)cc3)n2)cc1)C(=O)O (configuration not stated) ... 5.10
3. Cc1cccc(-c2nc(COc3ccc(CC(OC(C)C)C(=O)O)cc3)no2)c1 (configuration not stated) ... 5.80
4. CC(C)OC(Cc1ccc(OCCc2noc(-c3cccc(Cl)c3)n2)cc1)C(=O)O (configuration not stated) ... 7.00
5. CC(C)OC(Cc1ccc(OCc2noc(-c3ccc(C(C)C)cc3)n2)cc1)C(=O)O (configuration not stated) ... 5.10
6. CC(C)OC(Cc1ccc(OCc2noc(-c3ccccc3)n2)cc1)C(=O)O (configuration not stated) ... 5.00
7. CC(C)OC(Cc1ccc(OCc2noc(-c3ccc(OC(F)(F)F)cc3)n2)cc1)C(=O)O (configuration not stated) ... 5.10
8. CC(C)OC(Cc1ccc(OCc2noc(-c3cccc(F)c3)n2)cc1)C(=O)O (configuration not stated) ... 5.10
9. CC(C)OC(Cc1ccc(OCCc2noc(-c3cccc(F)c3)n2)cc1)C(=O)O (configuration not stated) ... 5.40
10. CC(C)OC(Cc1ccc(OCCc2noc(-c3cccc(C(F)(F)F)c3)n2)cc1)C(=O)O (configuration not stated) ... 6.30
11. CC(C)OC(Cc1ccc(OCc2noc(-c3ccc(Cl)cc3)n2)cc1)C(=O)O (configuration not stated) ... 6.30
12. CC(C)OC(Cc1ccc(OCc2noc(-c3ccc(C(F)(F)F)cc3)n2)cc1)C(=O)O (configuration not stated) ... 6.30
13. CC(C)OC(Cc1ccc(OCc2noc(-c3ccc(Br)cc3)n2)cc1)C(=O)O (configuration not stated) ... 6.10
14. CC(C)OC(Cc1ccc(OCc2noc(-c3cc(C(F)(F)F)cc(C(F)(F)F)c3)n2)cc1)C(=O)O (configuration not stated) ... 6.49
15. CC(C)OC(Cc1ccc(OCc2noc(-c3ccc(C(C)(C)C)cc3)n2)cc1)C(=O)O (configuration not stated) ... 5.30
16. Cc1ccccc1-c1nc(COc2ccc(CC(OC(C)C)C(=O)O)cc2)no1 (configuration not stated) ... 5.80
17. CC(C)OC(Cc1ccc(OCc2noc(-c3cc(F)cc(F)c3)n2)cc1)C(=O)O (configuration not stated) ... 6.80
